Every entry's value here was drawn from patent US10039747B2.

// reported IC50 per item
Target: H+/K+-ATPase (Sus scrofa)
Construct: reaction buffer solution (60 mmol/l Tris-HCl buffer solution, pH 7.4) containing hog gastric vesicle
Sequence (P19156 2-1034 limits assumed): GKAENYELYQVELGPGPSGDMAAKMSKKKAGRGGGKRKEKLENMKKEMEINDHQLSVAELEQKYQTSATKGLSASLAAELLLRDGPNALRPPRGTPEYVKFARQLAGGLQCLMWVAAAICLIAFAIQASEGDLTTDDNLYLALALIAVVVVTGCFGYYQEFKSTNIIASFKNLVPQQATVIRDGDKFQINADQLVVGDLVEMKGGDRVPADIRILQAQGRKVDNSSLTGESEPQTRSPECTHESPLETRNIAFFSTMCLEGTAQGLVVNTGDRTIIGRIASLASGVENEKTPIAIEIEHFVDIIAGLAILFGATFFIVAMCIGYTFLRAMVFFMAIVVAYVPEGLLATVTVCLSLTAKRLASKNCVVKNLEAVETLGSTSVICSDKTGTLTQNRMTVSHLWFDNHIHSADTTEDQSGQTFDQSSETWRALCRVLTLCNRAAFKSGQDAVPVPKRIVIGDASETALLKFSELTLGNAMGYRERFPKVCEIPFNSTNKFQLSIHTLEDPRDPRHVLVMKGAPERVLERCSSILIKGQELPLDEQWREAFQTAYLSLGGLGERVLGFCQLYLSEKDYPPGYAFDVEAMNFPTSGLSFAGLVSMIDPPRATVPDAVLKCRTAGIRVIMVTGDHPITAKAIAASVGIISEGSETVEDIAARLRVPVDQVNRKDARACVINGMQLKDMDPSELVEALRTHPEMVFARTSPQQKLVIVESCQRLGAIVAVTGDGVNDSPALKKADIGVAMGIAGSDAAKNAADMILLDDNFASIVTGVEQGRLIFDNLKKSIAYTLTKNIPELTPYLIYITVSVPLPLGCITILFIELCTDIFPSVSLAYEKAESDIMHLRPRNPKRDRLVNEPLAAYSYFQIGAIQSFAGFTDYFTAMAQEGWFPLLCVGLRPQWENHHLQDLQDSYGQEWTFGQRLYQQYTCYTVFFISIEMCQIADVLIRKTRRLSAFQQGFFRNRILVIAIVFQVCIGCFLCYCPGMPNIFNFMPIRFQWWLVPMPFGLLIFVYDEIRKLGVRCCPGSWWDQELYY
Sequence (P18434 whole entry partner): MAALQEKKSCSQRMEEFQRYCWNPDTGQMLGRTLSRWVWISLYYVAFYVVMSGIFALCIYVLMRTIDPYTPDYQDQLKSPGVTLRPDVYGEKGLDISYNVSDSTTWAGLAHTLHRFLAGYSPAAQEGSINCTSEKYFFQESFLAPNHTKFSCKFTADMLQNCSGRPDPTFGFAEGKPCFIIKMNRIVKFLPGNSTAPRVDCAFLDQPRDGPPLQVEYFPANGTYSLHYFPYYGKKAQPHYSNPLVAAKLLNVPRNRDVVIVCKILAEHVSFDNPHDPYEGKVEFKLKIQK
Experiment: Inhibition of proton pump (H+/K+-ATPase) activity in hog gastric vesicles
Details: K+ specific H+/K+-ATPase activity, pH 7.4, 37° C. for 40 minutes, malachite green
Structures can show the parent of a compound that is named as a salt.
Your answer is read as µM, so omit the unit and give the number.

# molecule, assayedSystem, unitsText, IC50
data = [
    ("CNC1CCc2c1cn(S(=O)(=O)c1cccc(Cl)c1)c2-c1ccccc1N1CCOCC1 (stereo not shown)", "H+/K+-ATPase (Sus scrofa)", "µM", 40),
    ("CNC1NCc2c1cn(S(=O)(=O)c1cccc(Cl)c1)c2-c1ccccc1F (stereo not shown) [Example 115, hydrochloride]", "H+/K+-ATPase (Sus scrofa)", "µM", 40),
]

So for CNC1CCc2c1cn(S(=O)(=O)c1cccnc1)c2-c1cc(Cl)cc(C)c1F (stereo not shown) , the logged IC50 turned out to be 0.34

// IC50 lookup, molecule = CNC1CCCCc2c1cn(S(=O)(=O)c1cccc(Cl)c1)c2-c1ccccc1F (stereo not shown) , result: 2.2
